Where these numbers come from: the supplement of paper PMC9549728

System: murine normal gastric organoid
Assay: IC50 (viability, PrestoBlue) (log10 nM)
Conditions: exposure time: 72 h
Please go through the items and note down their IC50 (log10 nM).
Respond with the number and no other words.

stdin: Give IC50 (log10 nM) for the following molecule: COc1c(OCCCN2CCOCC2)ccc2c1N=C(NC(=O)c1cnc(N)nc1)N1CCN=C21
stdout: 1.94

stdin: Give IC50 (log10 nM) for the following molecule: COc1cc2ncnc(Nc3ccc(F)c(Cl)c3)c2cc1OCCCN1CCOCC1
stdout: 1.98

stdin: Give IC50 (log10 nM) for the following molecule: CCNC(=O)C[C@@H]1N=C(c2ccc(Cl)cc2)c2cc(OC)ccc2-n2c(C)nnc21
stdout: 2.77

stdin: Give IC50 (log10 nM) for the following molecule: O=c1[nH]c(=O)n([C@H]2C[C@H](O)[C@@H](CO)O2)cc1F
stdout: 2.96

stdin: Give IC50 (log10 nM) for the following molecule: COC(=O)N[C@@H](C)CNc1nccc(-c2cn(C(C)C)nc2-c2cc(Cl)cc(NS(C)(=O)=O)c2F)n1
stdout: 3.91

stdin: Give IC50 (log10 nM) for the following molecule: Cn1cnc2c(F)c(Nc3ccc(Br)cc3Cl)c(C(=O)NOCCO)cc21
stdout: 2.47

stdin: Give IC50 (log10 nM) for the following molecule: O=C1NC(=O)[C@@H](c2cn3c4c(cccc24)CCC3)[C@@H]1c1c[nH]c2ccccc12 [Tivantinib]
stdout: 2.87

stdin: Give IC50 (log10 nM) for the following molecule: Cc1nc(C(=O)NCC(=O)O)c(O)c2ccc(Oc3ccccc3)cc12
stdout: 2.38

stdin: Give IC50 (log10 nM) for the following molecule: Cn1cnc2c(F)c(Nc3ccc(Br)cc3F)c(C(=O)NOCCO)cc21
stdout: 2.09

stdin: Give IC50 (log10 nM) for the following molecule: Cc1cc(C)c(/C=C2\C(=O)Nc3ccccc32)[nH]1
stdout: 4.03

stdin: Give IC50 (log10 nM) for the following molecule: C=CC(=O)Nc1cc2c(Nc3ccc(F)c(Cl)c3)ncnc2cc1OCCCN1CCOCC1
stdout: 2.35

stdin: Give IC50 (log10 nM) for the following molecule: Cc1sc2c(c1C)C(c1ccc(Cl)cc1)=N[C@@H](CC(=O)Nc1ccc(O)cc1)c1nnc(C)n1-2
stdout: 2.22

stdin: Give IC50 (log10 nM) for the following molecule: Cc1cc(Nc2ncc(Cl)c(Nc3ccccc3S(=O)(=O)C(C)C)n2)c(OC(C)C)cc1C1CCNCC1
stdout: 2.84

stdin: Give IC50 (log10 nM) for the following molecule: CNC(=O)c1ccccc1Sc1ccc2c(/C=C/c3ccccn3)n[nH]c2c1
stdout: 3.98

stdin: Give IC50 (log10 nM) for the following molecule: COc1ccc(-c2cc3c(C)nc(N)nc3n([C@H]3CC[C@H](OCCO)CC3)c2=O)cn1
stdout: 2.08

stdin: Give IC50 (log10 nM) for the following molecule: C=CCc1ccc(O)c(-c2ccc(O)c(CC=C)c2)c1
stdout: 3.97

stdin: Give IC50 (log10 nM) for the following molecule: COc1cc2/c(=N/c3ccc(Br)cc3F)nc[nH]c2cc1OCC1CCN(C)CC1
stdout: 3.95
